- assay.procedure: Non-specific binding (NSB) of drugs to ultrafiltration membrane filter, regenerated cellulose (Millipore Ultrafree-MC UFC 3LGC00, 10 k NMWL)
- Type: physicochemical
- settings: pretreatment 5% benzalkonium chloride; drug 10 uM; regenerated cellulose
Record form. Attribute: NSB (%) 5% BAK. Fill in for each entry.
Just the number please, in %, no unit attached.

stdin: Give NSB (%) 5% BAK for COc1ccc(CCN(C)CCCC(C#N)(c2ccc(OC)c(OC)c2)C(C)C)cc1OC (stereo not shown)
stdout: 12

stdin: Return the recorded NSB (%) 5% BAK value; entry: C[C@]12CCC(=O)C=C1CC[C@@H]1[C@@H]2[C@@H](O)C[C@@]2(C)[C@H]1CC[C@]2(O)C(=O)CO [Hydrocortisone]
stdout: 14

stdin: Give a short answer stating reported NSB (%) 5% BAK for CC(C)NCC(O)COc1cccc2ccccc12 (stereo not shown) .
stdout: 10

stdin: Provide only the value of recorded NSB (%) 5% BAK for CC[C@]1(O)C[C@@H]2CN(CCc3c([nH]c4ccccc34)[C@@](C(=O)OC)(c3cc4c(cc3OC)N(C)[C@H]3[C@@](O)(C(=O)OC)[C@H](OC(C)=O)[C@]5(CC)C=CCN6CC[C@]43[C@@H]65)C2)C1
stdout: 59

###

Provide the reported NSB (%) Tween 80 of each item.
- assay.procedure: Non-specific binding (NSB) of drugs to ultrafiltration membrane filter, regenerated cellulose (Millipore Ultrafree-MC UFC 3LGC00, 10 k NMWL)
- Type: physicochemical
- settings: pretreatment with 0.5% Tween 80; drug concentration 5 uM; regenerated cellulose

stdin: Recall and state the measured NSB (%) Tween 80 for C[C@]12CCC(=O)C=C1CC[C@@H]1[C@@H]2[C@@H](O)C[C@@]2(C)[C@H]1CC[C@]2(O)C(=O)CO [Hydrocortisone] .
stdout: 21.1%

stdin: Complete the entry with NSB (%) Tween 80 for Cn1c(=O)c2c(ncn2C)n(C)c1=O
stdout: 0%

stdin: Give a short answer stating reported NSB (%) Tween 80 for CC[C@]1(O)C[C@@H]2CN(CCc3c([nH]c4ccccc34)[C@@](C(=O)OC)(c3cc4c(cc3OC)N(C)[C@H]3[C@@](O)(C(=O)OC)[C@H](OC(C)=O)[C@]5(CC)C=CCN6CC[C@]43[C@@H]65)C2)C1 .
stdout: 95.2%

stdin: Write down NSB (%) Tween 80 measured for item CC(C)Cc1ccc(C(C)C(=O)O)cc1 (stereo not drawn)
stdout: 2.3%

stdin: Retrieve NSB (%) Tween 80 measured for COc1cc([C@@H]2c3cc4c(cc3[C@@H](O[C@@H]3O[C@@H]5CO[C@@H](C)O[C@H]5[C@H](O)[C@H]3O)[C@H]3COC(=O)[C@H]23)OCO4)cc(OC)c1O [Etoposide] and print it.
stdout: 23.1%

stdin: Note down NSB (%) Tween 80 recorded for Cc1cc(=O)n(-c2ccccc2)n1C [Antipyrine]
stdout: 0%

stdin: Please report NSB (%) Tween 80 for the following molecule: CC(C(=O)O)c1cccc(C(=O)c2ccccc2)c1 (stereo not drawn)
stdout: 4.1%

stdin: Name the recorded NSB (%) Tween 80 of the molecule listed here: CC(C)NCC(O)COc1cccc2ccccc12 (stereo not drawn)
stdout: 46.5%

stdin: Provide measured NSB (%) Tween 80 value, entry: Cn1c(=O)c2[nH]cnc2n(C)c1=O
stdout: 0%
